pIC50: −log10 of the molar value.
Quick record: pIC50, Mcl-1 protein (residues 171-323) (Homo sapiens (Human), UniProt Q07820).
assay.metric: pIC50

> print(dat)
                                   compound  endpoint.value
1  Cc1c2c(nn1C)CSCc1cc(n(C)n1)CSc1cc(c3ccc(F)cc3c1)OCCCn1c(C(=O)O)c(CN(C)S(=O)(=O)C(F)(F)F)c3c-2c(Cl)ccc31 [Cpd. No. 23]            7.80
2  Cc1c(C(=O)O)n2c3ccc(Cl)c(c13)-c1c(nn(C)c1C)CN(S(C)(=O)=O)Cc1cc(n(C)n1)CSc1cc(c3ccccc3c1)OCCC2 [Cpd. No. 46]            8.10
3  Cc1c(C(=O)O)n2c3ccc(Cl)c(c13)-c1c(nn3c1CC(C)(C)C3)CSCc1cc(n(C)n1)CSc1cc(c3ccc(F)cc3c1)OCCC2 [Cpd. No. 3]            7.85
4  Cc1c(C(=O)O)n2c3ccc(Cl)c(c13)-c1c(nn(C)c1C)CN(S(=O)(=O)C(F)(F)F)Cc1cc(n(C)n1)CSc1cc(c3ccc(F)cc3c1)OCCC2 [Cpd. No. 35]            7.82
